# Test system: CHO parental cells
# Experiment Summary: FACS binding of anti-EpCAM antibodies to CHO parental cells
# Design: species or system Chinese hamster
# Measurement Conditions: antibody 0.1 μg/ml; HPS at 300x dilution
Reported Binding (FACS, Mean fluorescence intensity (MFI)) CHO values for a set of molecules
Result Type: Binding (FACS, Mean fluorescence intensity (MFI)) CHO

{"Molecule": "12H8: murine anti-human EpCAM monoclonal antibody (IgG2a, K), hybridoma m342-12H8.3; VH SEQ ID NO:3, VL SEQ ID NO:5 (antibody, listed as Mus musculus, V domains shown) VH: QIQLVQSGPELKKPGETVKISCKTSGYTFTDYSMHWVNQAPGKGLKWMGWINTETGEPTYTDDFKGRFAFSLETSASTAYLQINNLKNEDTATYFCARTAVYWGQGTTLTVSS VL: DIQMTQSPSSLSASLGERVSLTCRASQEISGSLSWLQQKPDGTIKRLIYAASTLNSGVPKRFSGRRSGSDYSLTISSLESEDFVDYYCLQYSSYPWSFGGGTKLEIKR", "Observed": 5}
{"Molecule": "2D11: murine anti-human EpCAM monoclonal antibody (IgG1, K), hybridoma m322-2D11.19; VH SEQ ID NO:15, VL SEQ ID NO:17 (antibody, listed as Mus musculus, V domains shown) VH: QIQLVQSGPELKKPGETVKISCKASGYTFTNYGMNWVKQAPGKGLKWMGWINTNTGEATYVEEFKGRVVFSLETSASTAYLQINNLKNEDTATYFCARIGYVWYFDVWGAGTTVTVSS VL: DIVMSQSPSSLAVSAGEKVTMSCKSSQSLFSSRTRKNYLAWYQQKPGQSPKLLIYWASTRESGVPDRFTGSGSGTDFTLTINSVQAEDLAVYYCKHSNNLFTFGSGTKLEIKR", "Observed": 6}
{"Molecule": "6D11: murine anti-human EpCAM monoclonal antibody (IgG1, K), hybridoma m338-6D11.8; VH SEQ ID NO:23, VL SEQ ID NO:25 (antibody, listed as Mus musculus, V domains shown) VH: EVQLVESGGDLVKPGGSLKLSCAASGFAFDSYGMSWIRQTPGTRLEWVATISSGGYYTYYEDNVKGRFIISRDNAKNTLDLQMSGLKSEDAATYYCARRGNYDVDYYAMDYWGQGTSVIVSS VL: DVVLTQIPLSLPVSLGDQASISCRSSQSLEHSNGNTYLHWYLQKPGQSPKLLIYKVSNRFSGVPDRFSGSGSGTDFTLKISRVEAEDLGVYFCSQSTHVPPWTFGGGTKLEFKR", "Observed": 5}
{"Molecule": "4D2: murine anti-human EpCAM monoclonal antibody (IgG1, K), hybridoma m338-4D2.20; VH SEQ ID NO:19, VL SEQ ID NO:21 (antibody, listed as Mus musculus, V domains shown) VH: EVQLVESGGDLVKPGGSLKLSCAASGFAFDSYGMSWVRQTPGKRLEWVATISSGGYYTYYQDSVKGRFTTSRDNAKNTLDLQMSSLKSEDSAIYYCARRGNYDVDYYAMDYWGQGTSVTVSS VL: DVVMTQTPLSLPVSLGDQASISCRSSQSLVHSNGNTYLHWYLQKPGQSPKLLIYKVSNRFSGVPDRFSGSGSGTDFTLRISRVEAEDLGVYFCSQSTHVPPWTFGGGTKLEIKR", "Observed": 5}
{"Molecule": "1G10: murine anti-human EpCAM monoclonal antibody (IgG1, K), hybridoma m290-1G10; VH SEQ ID NO:7, VL SEQ ID NO:9 (antibody, listed as Mus musculus, V domains shown) VH: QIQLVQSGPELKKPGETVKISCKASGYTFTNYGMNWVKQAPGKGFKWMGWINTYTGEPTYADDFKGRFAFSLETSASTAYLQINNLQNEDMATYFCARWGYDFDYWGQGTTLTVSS VL: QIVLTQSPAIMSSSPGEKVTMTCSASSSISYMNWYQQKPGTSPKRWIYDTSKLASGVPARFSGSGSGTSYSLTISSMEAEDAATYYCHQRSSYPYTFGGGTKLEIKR", "Observed": 5}
